Ref: ChEMBL document CHEMBL1128705

List of MIC80 values.
- Tested on: Human rhinovirus sp.
- measurement-description: In vitro concentration which inhibits 80% of serotypes tested
- Assay type: functional

Some compounds with recorded MIC80:
>>> reported("CCOC(=O)c1ccc(OCCCCC(=O)c2cc(C)[nH]c2C)cc1")
"> 29 µM"
>>> reported("Clc1ccc(CCCCCOc2ccc(C3=NCCO3)cc2)s1")
"21.4 µM"
>>> reported("Cc1ccc(C(=O)CCCCOc2ccc(C(=O)O)cc2)s1")
"> 31.4 µM"
>>> reported("Cc1ccc(C(=O)CCCOc2ccc(C3=NCCO3)cc2)s1")
"> 30.3 µM"
>>> reported("c1ccn(CCCCCOc2ccc(C3=NCCO3)cc2)c1")
"15.9 µM"
>>> reported("c1cc(C2=NCCO2)ccc1OCCCCCN1CCCC1")
"> 33.1 µM"

Record Cc1ccc(C(=O)CCCCOc2ccc(C3=NCCO3)cc2)s1 , field MIC80: 9.04 µM

Record Cc1cc(C(=O)CCCCOc2ccc(C3=NCCO3)cc2)c(C)n1C , field MIC80: > 28.2 µM

Record CCOC(=O)c1ccc(OCCCCC(=O)c2ccc(C)s2)cc1 , field MIC80: 2.31 µM

----------
- Test system: Human rhinovirus sp.
- measurement-description: In vitro concentration required to achieve 50% protection of HeLa cells from HRV-14 induced cytopathic effect
- Format: functional, organism-based
observable: EC50 (µM)

>>> reported("CCOC(=O)c1ccc(OCCCCC(=O)c2ccc(Cl)s2)cc1")
0.54

A = CCOC(=O)c1ccc(OCCCCCc2ccc(C)s2)cc1
B = Cc1ccc(CCCCCOc2ccc(C3=NCCO3)cc2)s1
Lookup: Smaller EC50 value, A vs B ? Kindly give the label for the entry you pick.
Found: A
(A: 7.16 µM, B: 11.5 µM)

I = CCOC(=O)c1ccc(OCCCCC(=O)c2cc(C=O)n(C)c2)cc1
II = Cc1ccc(C(=O)CCCOc2ccc(C3=NCCO3)cc2)s1
III = CCOC(=O)c1ccc(OCCCCC(=O)c2cc(C)cs2)cc1
IV = Cn1cccc1C(=O)CCCCOc1ccc(C2=NCCO2)cc1
V = CCOC(=O)c1ccc(OCCCCC(=O)c2cc[nH]c2)cc1
Lookup: Which order do these items take when sorted by rising EC50? List them. To answer, write out the labels according to the requested order.
Found: I, IV, III, V, II
(I: 1.96 µM, IV: 3.68 µM, III: 5.78 µM, V: 13.3 µM, II: 22.7 µM)

P = O=C(CCCCOc1ccc(C2=NCCO2)cc1)c1ccc[nH]1
Q = Cc1ccsc1C(=O)CCCCOc1ccc(C2=NCCO2)cc1
Lookup: Smaller EC50 value, P vs Q ? Kindly give the label for the entry you pick.
Found: Q
(Q: 1.46 µM, P: 8.01 µM)

----------
- Tested on: Human rhinovirus sp.
- measurement-description: In vitro concentration required to achieve 50% protection of HeLa cells from HRV-14 induced cytopathic effect
- Format: functional, organism-based
pEC50: −log10 of the molar value.
observable: pEC50

Record O=C(O)c1ccc(OCCCCC(=O)c2ccc(Cl)s2)cc1 , field pEC50: < 4.53

Record c1cc(C2=NCCO2)ccc1OCCCCCN1CCCC1 , field pEC50: < 4.48

Record Cc1ccc(C(=O)CCCCOc2ccc(C(=O)NCCO)cc2)o1 , field pEC50: < 4.51

Record Cc1ccc(C(=O)CCCCOc2ccc(C(=O)O)cc2)s1 , field pEC50: < 4.50

Record Cn1cc(C(=O)CCCCOc2ccc(C3=NCCO3)cc2)cc1C=O , field pEC50: < 4.55
